compounds and their reported inhibition
target: Arf-GAP with SH3 domain, ANK repeat and PH domain-containing protein 1 (Homo sapiens) (UniProt Q9ULH1); experiment: blockers of ASAP1-stimulated Arf1 GTP hydrolysis – biochemical, fluorescence polarization, human, triplicate, confirmation (AID 624431); settings: ASAP1-stimulated Arf1 GTPase, GDP fluorescence polarization; at 16.5 µM; hits give high values
Sequence (Q9ULH1 325-724 limits assumed): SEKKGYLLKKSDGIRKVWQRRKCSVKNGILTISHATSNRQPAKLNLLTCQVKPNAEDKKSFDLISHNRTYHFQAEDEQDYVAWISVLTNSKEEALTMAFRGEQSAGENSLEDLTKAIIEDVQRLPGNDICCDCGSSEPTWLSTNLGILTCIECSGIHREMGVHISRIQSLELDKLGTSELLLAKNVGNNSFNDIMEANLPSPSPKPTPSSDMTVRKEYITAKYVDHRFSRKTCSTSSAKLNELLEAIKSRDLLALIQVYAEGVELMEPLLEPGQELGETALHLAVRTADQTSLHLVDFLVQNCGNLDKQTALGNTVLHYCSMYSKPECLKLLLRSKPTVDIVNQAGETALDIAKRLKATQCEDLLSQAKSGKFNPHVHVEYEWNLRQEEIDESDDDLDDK
The list shows a part of the results.
Answer format: numeric, % implied, no suffix.

Example cases with answers are listed next.
Entry O=C(NC1=CC(=O)c2ccccc2C1=O)c1ccccc1 — recorded inhibition = 13.6

Entry COc1cc(/C=N/Nc2nn3cnnc3c3ccccc23)cc(OC)c1OC — recorded inhibition = 39

Entry C=CCC[C@@H](CCCCC)OC(=O)/C=C/[C@@H](O)[C@H](O)C[C@H](O)CC=C — recorded inhibition = 1.35

Entry CCN(CC)c1ccc2cc(C(N)=O)/c(=N\NC(=O)c3ccncc3)oc2c1 — recorded inhibition = 87.2

Okay, next one:
Entry Cc1cccc(-n2ncc(Cl)c(Cl)c2=O)c1 — recorded inhibition = -3.51
